measurement-notes: label from the status in PepcDB records
measured-endpoint: protein production

Before answering, review these 5 worked examples.
MVVMSKVLLNIGCADVDKPGYINVDARKTKVTHLVSNAWDLDCFEENSVHEIYSRHMLEHLNPEYAKLALQKWFYILEPEGKLVVIVPDIEFHARQLLGVSRSSFGDQMEHAFAGFWGWREKERGGSDFDAHQWGYTVATLENEIGAVGFERIERVVEGVDSEPWHLQMTARKPMTSLCCPMDFRGPFPLEHHHHHH: not failed
MELLIRTEQLLLQNEKNWELYLSNREEEKPFDFYKDMKPFVDEAKRCADDFLELAIPWVNTERPPYLGELQLRQACDNVQMTAVSAFNGRSFYKHFLDHYQSTKYTLTRVRDFLKRKEESM: not failed
PDGPTQLRALNLTEGFAVLHWKPPQNPVDTYDIQVTAPGAPPLQAETPGSAVDYPLHDLVLHTNYTATVRGLRGPNLTSPASITFTTGLEAPRDLEAKEVTP: not failed
TIDSNFQNKVDEILQRNYSQIVKTIGPYSENAYVVAMNPQTGAILAMSGFHHDLATGEVTPNPLAPILNSEVPGSVVKAGTLTAGYETGVIKGNDVLTDEAILLAGSNPKASWWNASGGTTMQLTAEQALEYSSNAYMMKLVFKMMGVNYYPNMIFPYEVGDDTVFKELRKAFAEYGMGTKTGIDIPGETTGIQNKDFKDSSSAPQGGNLLDLSFGQYDTYSALQLAQYVSTVANNGIRVQPHVVEGIYGNDENGALGKILKEIEPKVLNKVNISEDQIGILQQGFYNVVNGTSPFTTARGLKSDKFSIAAKTGTAETQATDANGVNHTTVNSNLVAYAPYENPEIAISVVLPHLNDEASKPNQTIAKEVLEAYMEMYKK: failed
MAKSRLLLSELLDQLSFALCIVRNDYVIVKVNEYFESRVIFDGETMQGKNILELFPESADYLKRKIDTALVIESSSFSSWEQKPHLLPFKSSRPVSGEEEQMYQNLEVIPIHSEDGTIEHVCLCVYDVTIQASQQQ: not failed

List reported protein production for each of these sequences:
1. MSEKKAVIGVVTISDRASKGIYEDISGKAIIDYLKDVIITPFEVEYRVIPDERDLIEKTLIELADEKGCSLILTTGGTGPAPRDVTPEATEAVCEKMLPGFGELMRQVSLKQVPTAILSRQTAGIRGSCLIVNLPGKPQSIKVCLDAVMPAIPYCIDLIGGAYIDTDPNKVKAFRPKK
2. MKIAIASGKGGTGKTTVAVNLALALEEVQLFDCDVEEPNCNLFLGFEMEPVEEVVFLVPEINPDKCTLCRGCSDFCRYNALAAIPNRILSFPSLCHGCGGCSFVCPAGAIEEKPETIGIIQKALSDSPLTFFCGTLKIGKATATPVIKSLQNHIDESRPAIIDSPPGTACPVLAVMGFADYCVLVTESTPFGFHDFCLALEAARALNVPVGVVLNRDGLGDSRVEDFCRAEGIPILLRIPNDRTIARLYSEGIPFVKEMPEWKKQFKDMFETIKTGLYESKGVQLEHHHHHH

Result:
1. not failed
2. failed

====

measurement-notes: label from the status in PepcDB records
measured-endpoint: protein production

Worked cases, answers included:
MSLRITRIRLYKTDLPYVDGSYGWGAGNAITVARASVVVIDTDAGLQGCGEFTPCGENYMIAHSEGVDAFARLAAPQLLGQDPRQVARMERLMDHLVQGHGYAKAPFDAAFWDILGQATGQPVWMLLGGKLCDGAPMYRVAPQRSEAETRAELARHRAAGYRQFQIKVGADWQSDIDRIRACLPLLEPGEKAMADANQGWRVDNAIRLARATRDLDYILEQPCRSYEECQQVRRVADQPMKLDECVTGLHMAQRIVADRGAEICCLKISNLGGLSKARRTRDFLIDNRMPVVAEDSWGGEIASAAVAHFAASTPEEFLINSTDLMNYNTRSTGLGGPTVHQGRLYASDTPGLGVTPDFNSLGAPVADWALPEGHHHHHH: not failed
KSEKRMKLTLKGGAAVDPDSGLEHSAHVLEKGGKVFSATLGLVDIVKGTNSYYKLQLLEDDKENRYWIFRSWGRVGTVIGSNKLEQMPSKEDAIEHFMKLYEEKTGNAWHSKNFTKYPKKFYPLEI: not failed
MNFLSQRYTGKSLHPDETKCYKNFTQTAQKLTHRLAESINHYVNHIDCVINTNLYNRLLAEKKESNHMIYKERETWLEAILNTLPDHVFILDESGRYIESFGGTHHSKTFNAERYIGLQLSDVLSPTKADELMGFIFDVMQDNETKVVKYNLSLHDHLLLPIEELEALENPEEMWFEAIIKPVNAPENANKLVIWSVRDITKTHLLEQRLKQLSETDALTGLLNRRAFISNLDNAIIQHTKRSQTLSCLMIDIDHFKDINDSVGHFSGDHVITRIAHVCQGVIRGSDFIGRLGGEEFAVILTDTNAIQAYEVAERIRQAIQATICHVDDVEITTTVSIGVAELNSQQSNAKELLIEADKAMYYSKHSGRNQVTLAYENLPDLKLYQAGHLKIQRVS: failed
MTLKTFFNFTRIQTLPAALLSPIAGCLFAFWYFGSFHFWPTLLFFIGLASINLFVSAWNNLMDYQKALDPEYKKWNIIVAKSINPKLALNICLALLAIDVVVGLIVLFLTNLAILPIGGLCFLIAIFYTYGPFAFSRFPLGEILAGLCEGFFGFFLAVYINSYDKGYFFINFDRNWFMTWTWDFKILLPILLVGLMCFVQNFNIMFSDNICDLEQDIRNERYTLPYYLKIPLSLKVFTGLYLFAGLCILIAIALGILPIWSLLMSIIALKVIPNIKKFRAKQSKSETFHLQIDNLMLFNASLALTLLLGIIFK: failed

Please turn your attention to the following entry.
Request: Which protein production is listed for MLSTGLDELVYRSNLIGSDRAVCNWGGGNTSMKTVEKDFRGREIAVMWVKGSGSDLATMGAKNFTGLNLEDIRPLIEREEMSDEEMVEYLGHCMIDRNHPRPSIETLLHAFLPFKHVDHTHPDAIISICCADNGKEIAKNLFGDRFVWVPYVRPGFSLSKLIAEGVQKNPHAELVLMEKHGLVVWGETAKESYDRTISVINEAEAYIRSRINESVIFGGGKLEHHHHHH ?
Result: failed

====

measurement-notes: label from the status in PepcDB records
measured-endpoint: protein production

MLILKNSMASPHPFPWPQRFTVMALTFAWGLSLPVLAQTKSAVQWYNDGVDKLAAQNFSGAIADFTESIKLNDQDADAYYNRGYAKHVLGQYQAAITDYNQAISLNPEFAYALGNRCYAYFLLSQYDKAIQDCSNAIEINPNYADFYVYRGNSQSQLGNETTAIADYNDAIRINAQHANAYYNRALTHNRLKQDQQALADYNQSIQLDPDSAEAYFNRGLTQYRLGDEPKAIADLTKAAELFNAQEKKDMAQKAEAILTQIRAIDA: failed
LQTALARLGQWGILSRDLYGFFDQATELIRTALGVDYCGLWELLPNRSALVLCAGDGWDKALVGNYTIDATNRSYAGYTIQHNGDRRMEDYEPIVELDLRISTKFRASPLLHNLGIVSGINLMVAGPRTAFGVLGVYSLTARKFTEEEIEFLKVASHILAAAIDRQEYEERLLLLQQAIDASS: failed
TIDIDLQKEVEALLDKQIKKLRSQGAKDMDNAMMVVQNPKNGDILALAGKQINKSGKMTDYDIGTFTSQFAVGSSVKGGTLLAGYQNKAIKVGETMVDEPLHFQGGLTKRSYFNKNGHVSINDKQALMHSSNVYMFKTALKLAGDPYYSGMALPSDISSPAQKLRRGLNQVGLGVKTGIDLPNETRGQIEPLTNNPGNYLDLSIGQYDTYTPLQLSQYVSTIANDGYRIQPHIGLTIHESTNKDEVGPLKKKINGTVLNKVNNTEKEIKQIQEGFKMAFNDKDGTGYVSFKDTVVPTAGKTGTAEVFQNGEPRVNSTYIGYAPIDDPKLAFSIVYTNQPVPPPWLTGGDLGRDVINYYFKQLGKDDK: failed
MLKVSVITACFNSEKTIEDTILSVLHQTYKNIEYIIIDGASTDSTLEIIQKHRDKIACVMSEKDEGIYDAMNKGIKRSSGDIIALLNSDDFYKDEFVVEKVVHEFERKNCDSVYADLVFVKPDCLEKVVRYYEIGEFNPKTLLYGVVPAHPTLFVKKAIYERYGLYKTDYKISADFEMIIRLFVVQKISFSYLKEVLVVMRTGGVSASGFKSLLLRNKENIRACKENGIQANVFSMLLKYPRKIMGLFKRGKGGLKRND: failed
MTYDLTVIIPVYNTEKYLRRCLESIVNQDDIEQCSIKVICINDGSTDESRKIIEEFVEKYSYIEIFNKENGGLADVRNTGLQFINDSLYTVSLDSDDFWDKSFLTEFNKYKSSNYDLIFFDINLVDCDGNPVKELIVNPKFDKYNKKKDFMVVKHAAWSKICRTNLYDNINFPKGKLYEDLAVMPYLTSRAERIHYIQKPLINYVINTPGSIMNSSKSNIFDIYDSLIHLFNLFGNHFEKYRNELQYLAIEHLCVGHTYRLLNYPEATKQDFKDIVIFMEKYFGKHWDKNKYVKRGVQKVNINSSLSYVVPVFLKFLKYGGIIKLYDIKRVLLSKK: failed

Dear colleague, could you please provide protein production for the sequences listed below?
1. MEANTSSSGTVTGQRFAERRRSLPPGAELRQRLLKQLKELCDQIGKAYSTLVQKAALVIEPADQAVSLEPDTQRQATCITNLSDEGELWTTVYELNLGVQNLLMFIEDIRLLLLTQAQVPGPSVEENGLKTAGKGGCSPTELEGARFSDRLSSSNTHRFLEQLWDRYTP
2. MPGAMHDEPDHPELSITVPTLNEAEGLERFFAMLSAQQGVRFELVIADGGSTDGTPESARRLAAATPFAATVIETGRGRGRQMNAGAAAAAGDTLLFLHADCAFPDPLALRTALDAFTQTVAAGGSHRVAGHFRLRFERTDSAPSLPYYFYEWKARLHRPGCTHGDQGLLLGRRFFAEAGPFDESFPILEDVGLAERIAALGEWLLLPAEIVTSARRFEAEGLRERQTLNALLMNFAAMGWDPFLAELPRLYQSQDRAGRLLLGPVLRLIARLLRPLPRRERGRLWRETGRYVRANAWQIPFFLDVRRHFRQGTPVGEGETPRLDLHDRIFDRLTENGAGHRATALLVWIWFRLSLLREPLTPPAARNPEGNGSLEHHHHHH
3. SLSLIRKKGFYKQDVNKTAWELPKTYVSPTHVGSGAYGSVCSAIDKRSGEKVAIKKLSRPFQSEIFAKRAYRELLLLKHMQHENVIGLLDVFTPASSLRNFYDFYLVMPFMQTDLQKIMGLKFSEEKIQYLVYQMLKGLKYIHSAGVVHRDLKPGNLAVNEDCELKILDFGLARHADAEMTGYVVTRWYRAPEVILSWMHYNQTVDIWSVGCIMAEMLTGKTLFKGKDYLDQLTQILKVTGVPGTEFVQKLNDKAAKSYIQSLPQTPRKDFTQLFPRASPQAADLLEKMLELDVDKRLTAAQALTHPFFEPFRDPEEETEAQQPFDDSLEHEKLTVDEWKQHIYKEIVNFSPI
4. MALDSSGKQPEQQQQQQPRASSGNGEARLKLRRTPNEEHEPENYEDLPLDYSPSLFTSLERYLPEQLLNSTRIDKASFMRDLLLRYSPDTERVRVLRHKEYRDKIMSSYQRLHGEIYTLDPSSFFAPSFLGAFSRKSEPNFRSSMVESYPGIFTFEMFKPQFCEMLLAEVEHMEKWVYDSRSTIMRPNTMNNFGVVLDDFGFDSMLQKLVDDFISPIAQVLFPEVCGTSLDSHHGYIVEYGKDRDVDLGFHVDDSEVSLNVCLGKQFSGGELYFRGVRCDKHVNSDSTEKEVYDYSHVPGHAILHRGRHRHGARATTSGHRANLILWCRSSTFREMKNYQRDFSGWCGGCKLDKQRRQRDSINATKEILARKAAEKTLVELASKSCAE

Result:
1: not failed; 2: not failed; 3: not failed; 4: failed

Request: Requested field: protein production. Item: MTGTYTELIEGSERLSGLTDVDEVIKDLSRLLRKLVKTRWIAVYFFDRERRDFAPARSTGLPASFLPVFREMPLAPDKIPLLKSMLRKRQHLMLTDPGSSDLLTPKLRKLLRNLCVLAVPMVVRTQVIGAVFMARTRDNPPFSDAETAIIRDLVSHAALVVSHMQLFDE
Result: not failed
